test context: 344.15 K; 100 kPa; Liquid; Vibrating tube method
parameter measured: mass density (kg/m3)
Please give a number only; it is taken to be in kg/m3.

Identify measured mass density corresponding to CC[N+](C)(C)CCOC.O=S(=O)([N-]S(=O)(=O)C(F)(F)F)C(F)(F)F
1388.6

Identify measured mass density corresponding to CCCC[N+](CCO)(CCO)CCO.O=S(=O)([N-]S(=O)(=O)C(F)(F)F)C(F)(F)F
1417

Identify measured mass density corresponding to CCCC[N+](C)(C)CC.O=S(=O)([N-]S(=O)(=O)C(F)(F)F)C(F)(F)F
1331.8

Identify measured mass density corresponding to CC[N+](C)(C)CCCO.O=S(=O)([N-]S(=O)(=O)C(F)(F)F)C(F)(F)F
1423.6

====

test context: 303.15 K; 100 kPa; Liquid; Frequency=0.0006 MHz; Alternating current cell with electrodes
What electrical conductivity was measured for each of the following?
Kindly report the value followed by its unit.

Identify measured electrical conductivity corresponding to CCCC[N+](CCO)(CCO)CCO.O=S(=O)([N-]S(=O)(=O)C(F)(F)F)C(F)(F)F
0.024 S/m

Identify measured electrical conductivity corresponding to CC[N+](C)(C)CCCO.O=S(=O)([N-]S(=O)(=O)C(F)(F)F)C(F)(F)F
0.162 S/m

Identify measured electrical conductivity corresponding to C[N+](CCO)(CCO)CCO.O=S(=O)([N-]S(=O)(=O)C(F)(F)F)C(F)(F)F
0.05 S/m

Origin of values: the NIST ThermoML archive (doi:10.1021/acs.jced.9b00442)
